This collection of values is drawn from PubChem BioAssay (NCI).

Tested on: NCI-H522 lung
Assay details: NCI-60 one-dose screen, 48 h
Assay context: 10 µM unless noted
Experimental: Growth inhibition of the NCI-H522 human Non-Small Cell Lung tumor cell line is measured as a screen for anti-cancer activity. Cells are grown in 96 well plates and exposed to the test compound for 48 hours. Compounds are tested at a single concentration, which is 10^-5 M for most compounds. The reported endpoint is percent growth (GI% or GIPRCNT), where numbers from 0 - 100% represent growth inhibition, and numbers from -100% - 0 represent cell death. […]
This is part of a sample that, as a whole, favours compounds with a hit. Of some 83,000 tested, about 20% had one in any assay. Activity calls are given as the source filed them. Rule for the calls: active = growth percent below 10; inactive = the rest.
Assign a class; possible classes are yes (1) = active, no (0) = inactive

Example cases with answers are listed next.
>  <Compound>
COc1cc(C=C2c3ccccc3C(=O)c3ccccc32)ccc1OCCCCOc1cc2c(cc1OC)C(=O)N1CCCC1C=N2 (stereo not given)

>  <Assigned label>
yes (1)

$$$$
>  <Compound>
NC(=O)CNc1ccc([As]=[As]c2ccc(NCC(N)=O)cc2)cc1 (stereo not given)

>  <Assigned label>
yes (1)

$$$$
>  <Compound>
[Cl][Hg][n]1c(-c2ccco2)nc2ccccc21

>  <Assigned label>
no (0)

$$$$
>  <Compound>
CCCc1cc(O)c2c3c(c(=O)oc2c1)CN(C)CC3

>  <Assigned label>
no (0)

$$$$
>  <Compound>
Cn1cc(-c2csc(-c3cn(CCN4CCOCC4)c4ccc(F)cc34)n2)c2cccnc21

>  <Assigned label>
yes (1)

$$$$
>  <Compound>
CCOC(=O)C(Cc1ccc(N(CCCl)CCCl)cc1)NC(=O)C(CC(C)C)NC(C)=O (stereo not given)

>  <Assigned label>
yes (1)

$$$$
>  <Compound>
CC1(C)[C@H](O)[C@H](F)C[C@@]2(C)Oc3ccc(C(=O)Nc4ccc5c(c4)NC(=O)C54CCN(CCCCC#N)CC4)cc3C[C@H]12

>  <Assigned label>
yes (1)

$$$$
>  <Compound>
CC(C)(C)C(=O)OCOP(=O)(OCOC(=O)C(C)(C)C)C1CCCN(O)C1=O (stereo not given)

>  <Assigned label>
yes (1)

$$$$

## Task For CCCCN1CCCC[C@@H]1C(=O)N[C@H](C(=O)N(C)[C@H](CCc1nc(C(=O)N[C@@H](Cc2ccccc2)C[C@H](C)C(=O)OC)cs1)C(C)C)[C@@H](C)CC , which call appears in the assay record?
## Result no (0)

## Task GET /call?item= O=Cc1cn(Cc2ccc(Cl)cc2)c2ccccc12 returns the recorded outcome of this test.
## Result no (0)

## Task Just curious, what result did O=C(Nc1ccc([N+](=O)[O-])cc1)C(Cl)(Cl)Cl get here?
## Result no (0)

## Task # outcome recorded in this test, key = O=C(CC1(O)C(=O)Nc2ccc(Br)cc21)c1ccc(C(=O)NCC2CCC3(CC2)OOC2(CCCCC2)OO3)cc1 (stereo not given)
## Result yes (1)

## Task Called result for CC12CCC3C(CCC4=CC(=O)CCC43CF)C1CCC2=O (stereo not given)
## Result no (0)

## Task What call does the record list for ClCCN(CCCl)c1ccc(/C=N\N=C\c2ccc(N(CCCl)CCCl)cc2)cc1 ?
## Result no (0)

## Task State the result this test recorded for Fc1ccc(C2=CCNCC2)cc1 .
## Result no (0)

## Task Tell me the recorded outcome of this test for COC1CC2c3ccccc3C1C(C)=[N+]2C (stereo not given) .
## Result no (0)

====

Tested on: OVCAR-3 ovarian
Assay details: NCI-60 one-dose screen, 48 h (100 = growth as untreated, 0 = no growth, -100 = all killed)
Assay context: 10 µM unless noted
About 83,000 compounds went through this panel and 20% of them were active in at least one assay; those are over-represented in the sample as a whole.
Could you please report measured growth for the items listed next?
One number for each entry, in %.

>  <Compound>
COC(=O)[C@@H](C)C[C@H](Cc1ccc(F)cc1)NC(=O)c1csc([C@@H](C[C@H](C(C)C)N(C)C(=O)[C@@H](NC(=O)[C@H]2CCCCN2C)C2CC2)OC(C)=O)n1

>  <growth / %>
-25

$$$$

For every item in the list below, what is its measured growth?
1. O=C(CN1CCN(C(=O)c2ccco2)CC1)Nc1ccc(Cl)cc1C(=O)c1ccccc1Cl
2. COC(=O)N[C@H]1CCc2c(Br)c(OC)c(OC)c(OC)c2-c2ccc(SC)c(=O)cc21

## Result
115
-40.5

====

Test system: OVCAR-8 ovarian
Assay details: NCI-60 one-dose screen, 48 h
Assay context: 10 µM unless noted
About 83,000 compounds went through this panel and 20% of them were active in at least one assay; those are over-represented in the sample as a whole. Calls of active or inactive are those of the source. How the source made its calls: active means growth percent below 10; inactive means the rest.
Parameter call: string, one of active, inactive

Recorded results for 8 compounds are shown here.
>  <Compound>
C/C(=C\c1ccn(-c2ccccc2N)n1)[C@@H]1C[C@@H]2O[C@]2(C)CCC[C@H](C)[C@H](O)[C@@H](C)C(=O)C(C)(C)[C@@H](O)CC(=O)O1

>  <Assigned label>
inactive

$$$$
>  <Compound>
O=c1[nH]c2ccc([N+](=O)[O-])cc2c(=O)o1

>  <Assigned label>
inactive

$$$$
>  <Compound>
CC12CC(=O)C3(SC#N)C(CCC4=CC(=O)CCC43C)C1CCC2=O (centres undefined)

>  <Assigned label>
inactive

$$$$
>  <Compound>
O=[N+]([O-])c1cc(I)cc([N+](=O)[O-])c1

>  <Assigned label>
inactive

$$$$
>  <Compound>
Oc1ccc2c3c1OC1[C@@H](O)CC[C@@]4(O)[C@@H](C2)N(CC2CCC2)CC[C@]314 (some centres undefined)

>  <Assigned label>
inactive

$$$$
>  <Compound>
O=C([O][Hg][CH2]C1OCCOC1[CH2][Hg][O]C(=O)c1ccccc1)c1ccccc1 (centres undefined)

>  <Assigned label>
inactive

$$$$
>  <Compound>
CCCCN(CCCC)P(=O)(Oc1ccccc1)Oc1ccccc1

>  <Assigned label>
inactive

$$$$
>  <Compound>
C[n+]1c(/C=C/c2ccc(N(CCCl)CCCl)cc2)sc2ccccc21

>  <Assigned label>
inactive

$$$$

## Task Which outcome did this test record for the compound CN1C(=O)C(=Cc2cn(CCCCCCn3c4ccccc4c(=O)c4ccccc43)c3ccccc23)C(=O)N(C)C1=O ?
## Result inactive

## Task // return assay outcome for CC1=C(CN)C2=C(C)C3(CC3)[C@@](C)(O)C(=O)C2=C1
## Result inactive

## Task Could you please tell me the result logged for Cn1cc(-c2csc(-c3cn(CCCCN4CCCCC4)c4ccccc34)n2)c2cccnc21 in this assay?
## Result active

## Task Hi team, can someone confirm the assay call for COc1ccc(/C=C\c2cc(OC)c(OC)c(OC)c2)c(NS(=O)(=O)c2ccc(C)cc2)c1O ?
## Result inactive

## Task Check the results log: what was the call for CC[C@H](C)[C@H](NC(=O)C12CC(NC(C)=O)(C1)C2)C(=O)N(C)[C@H](C[C@@H](OC(C)=O)c1nc(C(=O)N[C@@H](Cc2ccccc2)C[C@H](C)C(=O)OC)cs1)C(C)C ?
## Result inactive

## Task Which outcome was entered for the compound Clc1ccc2nnnn2n1 in this test?
## Result inactive

## Task Lab log entry: O=C([O][Hg][c]1ccccc1)c1ccccc1 — outcome as called in the assay?
## Result active

====

Tested on: SK-MEL-5 melanoma
Assay details: NCI-60 one-dose screen, 48 h (100 = growth as untreated, 0 = no growth, -100 = all killed)
Assay context: 10 µM unless noted
Description: Growth inhibition of the SK-MEL-5 human tumor cell line is measured as a screen for anti-cancer activity. Cells are grown in 96 well plates and exposed to the test compound for 48 hours. Compounds are tested at a single concentration, which is 10^-5 M for most compounds. The reported endpoint is percent growth (GI% or GIPRCNT), where numbers from 0 - 100% represent growth inhibition, and numbers from -100% - 0 represent cell death. For example, a value of 40 represents 60% growth inhibition. […]
About 83,000 compounds went through this panel and 20% of them were active in at least one assay; those are over-represented in the sample as a whole.
For each of the molecules below, state its growth.
One number for each entry, in %.

Please review the following examples before continuing.
>  <Molecule>
CC12CC(=O)C3(SC#N)C(CCC4=CC(=O)CCC43C)C1CCC2=O (centres undefined)

>  <growth (%)>
101

$$$$
>  <Molecule>
CC(C)(C)N1CC1C#N (centres undefined)

>  <growth (%)>
105

$$$$
>  <Molecule>
CCCCN1CCCC[C@@H]1C(=O)N[C@H](C(=O)N(C)[C@H](CCc1nc(C(=O)N[C@@H](Cc2ccccc2)C[C@H](C)C(=O)OC)cs1)C(C)C)[C@@H](C)CC

>  <growth (%)>
34.8

$$$$
>  <Molecule>
CCC(O)(CN)c1ccccc1 (centres undefined)

>  <growth (%)>
98.9

$$$$
>  <Molecule>
COC(=O)[C@@H](C)C[C@H](Cc1ccccc1)NC(=O)c1csc([C@@H](C[C@H](C(C)C)N(C)C(=O)[C@@H](NC(=O)[C@H]2CCCCN2C)C2CC2)OC(C)=O)n1

>  <growth (%)>
-50.1

$$$$
>  <Molecule>
Cc1cc(N(CCCl)CCCl)ccc1C=Nc1cccnc1

>  <growth (%)>
77.5

$$$$
>  <Molecule>
CC1(C)N=C(N)N=C(N)N1c1ccc(CCC(=O)Nc2ccc(S(=O)(=O)F)cc2)c(Cl)c1

>  <growth (%)>
22.2

$$$$
>  <Molecule>
Cn1cc(-c2csc(-c3cn(CCCCN4CCCCC4)c4ccccc34)n2)c2cccnc21

>  <growth (%)>
-92.1

$$$$

Next molecule, please.
## Task Provide growth value for the following molecule: CCOc1ccccc1C(=O)OCC(Cl)(Cl)Cl
## Result 106
